Each entry below lists one item and its recorded z-score value.
Test: CREB reporter modulators without forskolin, primary screen, cell-based, PC12, CRE-LacZ reporter, unstimulated (AID 1145)
Details: no forskolin, luminescence, 4.5 h, higher = more signal, called active from +8 up or from −8 down
parameter: z-score

[
  {
    "compound": "C[C@@H](c1ccccc1)N1C(=O)[C@H]2[C@H]3[C@H](O)C=CC(=O)[C@@H]3CC[C@H]2C1=O",
    "quantitative-readout": 0.247
  },
  {
    "compound": "O=C1[C@H]2[C@H]3[C@H](O)[C@H](O)CC(=NOCc4ccccc4)[C@@H]3CC[C@H]2C(=O)N1Cc1ccccc1",
    "quantitative-readout": 0.155
  },
  {
    "compound": "C=CCOC(=O)[C@H]1[C@@H]2C(=O)O[C@@H](c3ccccc3)[C@@H](c3ccccc3)N2[C@@H](c2ccc(OCCOC(=O)[C@H]3C[C@H]4C(=O)N[C@@H](Cc5ccccc5)C(=O)N4[C@H]3c3ccc(O)cc3)cc2)[C@]12C(=O)Nc1ccccc12",
    "quantitative-readout": 0.285
  },
  {
    "compound": "O=C1O[C@@H](c2ccccc2)[C@@H](c2ccccc2)N2[C@@H](c3ccc(O)cc3)[C@]3(C(=O)Nc4ccccc43)[C@@H](C(=O)O)[C@H]12",
    "quantitative-readout": 0.568
  },
  {
    "compound": "CC(C)(C)N1CC=CC23O[C@@H]4C=CCCOC(=O)C4[C@H]2C(=O)N(CCCCCO)[C@@H]3C1=O (stereo partly specified)",
    "quantitative-readout": 0.333
  },
  {
    "compound": "CCCNC(=O)[C@@H]1c2ccccc2C(=O)N(Cc2ccccc2Cl)[C@H]1c1ccc(CO)cc1",
    "quantitative-readout": -0.412
  },
  {
    "compound": "C[C@@H]1C=CCC(=O)OC[C@H](C)C(=O)N2CCC[C@H]2C(=O)OC1",
    "quantitative-readout": -0.264
  },
  {
    "compound": "CCOC(=O)CCN1C(=O)[C@H]2[C@H]3[C@H](O)[C@H](O)CC(=O)[C@H]3CC[C@H]2C1=O",
    "quantitative-readout": 0.429
  },
  {
    "compound": "O=C1[C@H]2[C@H]3[C@H](O)[C@H](O)CC(=NOCc4ccccc4)[C@@H]3CC[C@H]2C(=O)N1C1CCCCC1",
    "quantitative-readout": 0.519
  },
  {
    "compound": "O=C(NN=C1C[C@@H](O)[C@@H](O)[C@@H]2[C@@H]3C(=O)N(c4cccc(Oc5ccccc5)c4)C(=O)[C@@H]3CC[C@H]12)OCc1ccccc1",
    "quantitative-readout": -0.0199
  },
  {
    "compound": "CCCCCN1CC=CC23O[C@@H]4C=CCOC(=O)[C@@H]4[C@H]2C(=O)N(CCCCCCO)[C@@H]3C1=O (stereo partly specified)",
    "quantitative-readout": -0.342
  },
  {
    "compound": "CC(CCC(=O)OC[C@H]1O[C@H](C#Cc2ccccc2)C=C[C@@H]1Oc1ccc(C)cc1)=NOC[C@@H](O)COCc1ccco1",
    "quantitative-readout": 3.74
  },
  {
    "compound": "CCCNC(=O)OC[C@H]1O[C@H](CCON=C[C@@H](OC)[C@H](C)C=CCC(=O)OC)C=C[C@@H]1Oc1ccc(OC)cc1",
    "quantitative-readout": 3.46
  },
  {
    "compound": "Cc1cc2c(nc1C)CCCN2CC(C)ON=C1[C@H]2CCn3c(=O)n(-c4ccccc4)c(=O)n3[C@H]2[C@H](O)[C@@H]2O[C@H]12 (stereo partly specified)",
    "quantitative-readout": 0.415
  },
  {
    "compound": "CC(CCN1CCCCc2nc(C)c(C)cc21)=NOC(C)CN1CCCc2nc(C)c(C)cc21 (stereo unspecified)",
    "quantitative-readout": -0.24
  },
  {
    "compound": "COCCCNC(=O)[C@@]1(Sc2ccc(C)cc2)CC(=O)N(Cc2ccccc2)[C@@H]1c1ccc(CO)cc1I",
    "quantitative-readout": -0.232
  },
  {
    "compound": "COCC(=C=CC[C@@H](O)c1ccccc1OCCO)CCO",
    "quantitative-readout": 0.914
  },
  {
    "compound": "CC(C)CN1CCc2nc(-c3ccccc3)c3c(c2CC1)CO[C@@H](C)C3",
    "quantitative-readout": 0.738
  },
  {
    "compound": "CN(C)C(=O)[C@@]1(Cc2ccccc2)N=C(c2ccc(OCCCO)cc2)O[C@H]1c1ccccc1CN=[N+]=[N-]",
    "quantitative-readout": 0.974
  },
  {
    "compound": "COC(=O)[C@@]1(Cc2ccc(F)cc2)[C@@H]2C(=CC(=O)[C@H]2CC(=O)C(=O)N(C)C)CN1C(=O)c1ccccc1",
    "quantitative-readout": -0.179
  },
  {
    "compound": "CO[C@H]1COC(=O)[C@H](C)NC(=O)[C@@H](C)COC(=O)CC=C[C@@H]1C",
    "quantitative-readout": 0.341
  },
  {
    "compound": "COC(=O)[C@H](C)NC(=O)CCC1CC(OC(=O)NCCc2ccc(F)cc2)CC2(CCCC(COC(=O)NCCc3ccc(Cl)cc3)O2)O1 (stereo partly specified)",
    "quantitative-readout": -0.0732
  },
  {
    "compound": "CC(C)C[C@@H]1NC(=O)[C@H]2C[C@@H](C(=O)O)[C@@H](c3ccc(O)cc3)N2C1=O",
    "quantitative-readout": 0.281
  },
  {
    "compound": "Cc1cc2c(c(=O)o1)[C@H](O)[C@H]1O[C@H]1C2=O",
    "quantitative-readout": -1.06
  },
  {
    "compound": "C=CCN1C(=O)[C@]2(O[C@H](CCn3cc(CCO)nn3)[C@@H]([Si](C)(C)c3ccc(OC)cc3)[C@@H]2C)c2cc(N3CCOC3=O)ccc21",
    "quantitative-readout": 7.08
  },
  {
    "compound": "C[C@H]1CC[C@@H](C(=O)O)N[C@@H]1c1ccc(C#CCN(C)C)cc1",
    "quantitative-readout": 1.83
  },
  {
    "compound": "CCOC(=O)CCN1C(=O)[C@H]2[C@H]3[C@H](O)[C@H](O)CC(=NNC(=O)OCc4ccc(OC)cc4)[C@@H]3CC[C@H]2C1=O",
    "quantitative-readout": 0.957
  },
  {
    "compound": "CO[C@@H]1COC(=O)CCC[C@@H](C)[C@H](OC)COC(=O)CCC[C@H]1C",
    "quantitative-readout": -0.152
  },
  {
    "compound": "COC(=O)c1c(CC[C@@H](CO)NC(=O)N[C@H](Cc2ccccc2)Cn2cc(-c3ccccc3N)nn2)oc(C(C)=O)c1C(=O)OC",
    "quantitative-readout": 3.84
  },
  {
    "compound": "CO[C@@H]1COC(=O)CC=C[C@@H](C)COC(=O)[C@H](COCc2ccccc2)NC(=O)CC=C[C@H]1C",
    "quantitative-readout": 0.605
  },
  {
    "compound": "[N-]=[N+]=Nc1ccccc1C[C@@]1(C(N)=O)N=C(c2ccc(OCCCO)cc2)O[C@@H]1c1ccccc1",
    "quantitative-readout": 0.377
  }
]

----------
Biological target: Follistatin (Homo sapiens) (UniProt P19883)
Sequence (P19883 whole entry, looked up): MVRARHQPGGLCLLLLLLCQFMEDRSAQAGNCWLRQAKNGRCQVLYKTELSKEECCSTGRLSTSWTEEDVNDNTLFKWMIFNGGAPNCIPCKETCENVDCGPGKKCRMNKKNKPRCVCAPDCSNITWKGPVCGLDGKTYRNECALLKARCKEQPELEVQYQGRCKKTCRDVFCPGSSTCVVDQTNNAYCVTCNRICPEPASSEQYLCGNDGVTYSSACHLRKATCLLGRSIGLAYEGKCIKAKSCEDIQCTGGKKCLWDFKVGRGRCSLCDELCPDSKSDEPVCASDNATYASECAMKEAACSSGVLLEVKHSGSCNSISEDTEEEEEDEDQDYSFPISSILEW
Experiment: follistatin binders on small-molecule microarrays, primary screen, biochemical, small-molecule microarray, 635/667 nm fluorescence (AID 1132)
Conditions: FST binding, 635 nm fluorescence, higher = more signal
Lab note: anything with composite z-score at or over 0.6 counts as satisfied; the rest go in not satisfied.

[
  {
    "compound": "CCOC(=O)C1=CC[C@H]2C(=O)N(CC)C(=O)[C@@H]12",
    "label-class": "not satisfied"
  },
  {
    "compound": "C[C@@H]1CCC2C(=O)N(Cc3ccccc3)C[C@@H](O)CN2[C@H]1c1ccc(Br)cc1 (some centres not stated)",
    "label-class": "not satisfied"
  },
  {
    "compound": "CC(C)CON=C1[C@H]2CCn3c(=O)n(-c4ccccc4)c(=O)n3[C@H]2[C@H](O)[C@@H]2O[C@H]12",
    "label-class": "not satisfied"
  },
  {
    "compound": "CCOC(=O)NN=C1C[C@@H](O)[C@@H](O)[C@@H]2[C@@H]3C(=O)N(CC)C(=O)[C@@H]3CC[C@@H]12",
    "label-class": "not satisfied"
  },
  {
    "compound": "CC(C)=NOCc1ccc(-c2cc(-c3ccccc3)no2)cc1",
    "label-class": "not satisfied"
  },
  {
    "compound": "CCOc1ccc(N2C(=O)/C(=C/C=C/c3ccccc3OC)S(=O)(=O)C2c2cccc([N+](=O)[O-])c2)cc1 (configuration not stated)",
    "label-class": "not satisfied"
  },
  {
    "compound": "COc1ccc([Si](C)(C)[C@@H]2[C@@H](CCO)O[C@]3(C(=O)N(Cc4ccc(NC(C)=O)cc4)c4ccccc43)[C@H]2C)cc1",
    "label-class": "satisfied"
  },
  {
    "compound": "Cc1ccc(C2CC=C(C(=O)O)CN2S(=O)(=O)c2ccc(C)cc2)cc1 (configuration not stated)",
    "label-class": "not satisfied"
  },
  {
    "compound": "C=C(COC)/C(=C/C[C@H](OC(=O)c1ccncc1)c1ccc(CO)o1)c1cc(C(=O)OC)ccc1OC",
    "label-class": "satisfied"
  },
  {
    "compound": "COc1cccc([C@H]2Oc3ccc(OC)cc3C(=NOC(C)CN3CCCc4nc(C)c(C)cc43)[C@@H]2O)c1 (some centres not stated)",
    "label-class": "not satisfied"
  },
  {
    "compound": "CCN1C(=O)[C@H]2[C@H]3[C@H](O)[C@H](O)CC(=NOC[C@@H](C)[C@H](OCc4ccccc4)C(C)C)[C@@H]3CC[C@H]2C1=O",
    "label-class": "not satisfied"
  },
  {
    "compound": "CC(C)c1ccc(NN2C(C(O)c3ccc4c(c3)OCO4)C=CC3C(=O)N(c4ccccc4)C(=O)C32)cc1 (configuration not stated)",
    "label-class": "satisfied"
  },
  {
    "compound": "CCCCc1nc2c(c3c1C[C@H](C)OC3)CN(CCC(C)C)CC2",
    "label-class": "satisfied"
  },
  {
    "compound": "CO[C@@H]1COC(=O)CCC[C@@H](C)[C@H](OC)COC(=O)CCC[C@H]1C",
    "label-class": "not satisfied"
  },
  {
    "compound": "C=CCNC(=O)[C@H]1[C@@H]2C(=O)O[C@@H](c3ccccc3)[C@@H](c3ccccc3)N2[C@@H](c2ccc(O)cc2)[C@]12C(=O)N(C(=O)OCCOC)c1ccc(C#CC3=CCCCC3)cc12",
    "label-class": "not satisfied"
  }
]

All values here come from PubChem BioAssay.
